- test-system: T1, truncated human P1R deleted for residues (24-181) (hP1R-delNt) (human, UniProt Q03431 182-593)
- T1 sequence (looked up): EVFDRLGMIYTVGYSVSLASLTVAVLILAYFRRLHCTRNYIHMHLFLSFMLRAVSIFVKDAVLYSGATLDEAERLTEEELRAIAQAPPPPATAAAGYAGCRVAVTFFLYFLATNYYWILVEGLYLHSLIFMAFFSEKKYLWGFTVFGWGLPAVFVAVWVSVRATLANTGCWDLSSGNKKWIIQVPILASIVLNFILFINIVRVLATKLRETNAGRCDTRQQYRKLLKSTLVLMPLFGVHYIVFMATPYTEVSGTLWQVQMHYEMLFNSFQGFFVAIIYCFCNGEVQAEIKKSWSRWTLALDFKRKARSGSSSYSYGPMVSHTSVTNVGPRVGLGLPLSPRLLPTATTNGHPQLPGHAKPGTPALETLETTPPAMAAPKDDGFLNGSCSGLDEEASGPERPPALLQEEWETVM
- assay-info: cell-based or functional assay
Square brackets hold non-standard residues; d marks the D form. Ends that are not written are not given here. hArg = N=C(N)NCCCC[C@H](N)C(=O)O; Aib = CC(C)(N)C(=O)O
I'd appreciate it if you could supply cAMP EC50 values for the items below.
Give bare numbers, in nM.

Field: cAMP EC50. Fill in for each record below.
1. AVSEIQLMHNLGKH-NH2 (also called 521 PTH(1-14)) [native PTH(1-14) (rat sequence, amide)]
2. [Aib]V[Aib]EIQLMHQ-NH2 (N-terminus assumed; SMILES CC[C@H](C)[C@H](NC(=O)[C@H](CCC(=O)O)NC(=O)C(C)(C)NC(=O)[C@@H](NC(=O)C(C)(C)N)C(C)C)C(=O)N[C@@H](CCC(N)=O)C(=O)N[C@@H](CC(C)C)C(=O)N[C@@H](CCSC)C(=O)N[C@@H](Cc1c[nH]cn1)C(=O)N[C@@H](CCC(N)=O)C(N)=O, also called 684 [Aib^1,3, M]PTH (1-10); [Aib^1,3,M]PTH(1-10)) [[Aib^1,3,Gln^10]PTH(1-10)]
3. [Aib]V[Aib]EIQLMHQ[hArg]-NH2 (N-terminus assumed; SMILES CC[C@H](C)[C@H](NC(=O)[C@H](CCC(=O)O)NC(=O)C(C)(C)NC(=O)[C@@H](NC(=O)C(C)(C)N)C(C)C)C(=O)N[C@@H](CCC(N)=O)C(=O)N[C@@H](CC(C)C)C(=O)N[C@@H](CCSC)C(=O)N[C@@H](Cc1c[nH]cn1)C(=O)N[C@@H](CCC(N)=O)C(=O)N[C@@H](CCCCNC(=N)N)C(N)=O, also called 682 [Aib^1,3, M]PTH (1-11); [Aib^1,3,Gln^10,Har^11]PTH(1-11)) [[Aib^1,3,M]PTH(1-11)]
4. AVSEIQLXHNLGKHLASVERXQWLRKKLQDVHNY (Nle (norleucine) at 8 and 21; C-terminal amide, also called 92 PTH(1-34); 92.5 PTH(1-34)) [[Nle^8,21,Tyr^34]PTH(1-34)amide (rat sequence)]
5. [Aib]V[Aib]EIQLMHQ[hArg]AKW-NH2 (N-terminus assumed; SMILES CC[C@H](C)[C@H](NC(=O)[C@H](CCC(=O)O)NC(=O)C(C)(C)NC(=O)[C@@H](NC(=O)C(C)(C)N)C(C)C)C(=O)N[C@@H](CCC(N)=O)C(=O)N[C@@H](CC(C)C)C(=O)N[C@@H](CCSC)C(=O)N[C@@H](Cc1c[nH]cn1)C(=O)N[C@@H](CCC(N)=O)C(=O)N[C@@H](CCCCNC(=N)N)C(=O)N[C@@H](C)C(=O)N[C@@H](CCCCN)C(=O)N[C@@H](Cc1c[nH]c2ccccc12)C(N)=O, also called 671 [Aib^1,3, M]PTH (1-14); 671 [Aib^1,3M]PTH(1-14)) [[Aib^1,3,M]PTH(1-14)]

Response line:
140000
53000
2
680
0.73

Query AVAEIQLMHQ[hArg]AKW-NH2 (N-terminus assumed; SMILES CC[C@H](C)[C@H](NC(=O)[C@H](CCC(=O)O)NC(=O)[C@H](C)NC(=O)[C@@H](NC(=O)[C@H](C)N)C(C)C)C(=O)N[C@@H](CCC(N)=O)C(=O)N[C@@H](CC(C)C)C(=O)N[C@@H](CCSC)C(=O)N[C@@H](Cc1c[nH]cn1)C(=O)N[C@@H](CCC(N)=O)C(=O)N[C@@H](CCCCNC(=N)N)C(=O)N[C@@H](C)C(=O)N[C@@H](CCCCN)C(=O)N[C@@H](Cc1c[nH]c2ccccc12)C(N)=O, X = Har; also called [M]PTH(1-14); 621 [M]PTH(1-14)) [[Ala^3,12,Gln^10,Har^11,Trp^14]PTH(1-14)amide] yields cAMP EC50 of 40
